# target: T1, EsCas13d, nuclease-dead (Eubacterium siraeum, UniProt B0MS50, R295A;H300A;R849A;H854A)
# T1 sequence: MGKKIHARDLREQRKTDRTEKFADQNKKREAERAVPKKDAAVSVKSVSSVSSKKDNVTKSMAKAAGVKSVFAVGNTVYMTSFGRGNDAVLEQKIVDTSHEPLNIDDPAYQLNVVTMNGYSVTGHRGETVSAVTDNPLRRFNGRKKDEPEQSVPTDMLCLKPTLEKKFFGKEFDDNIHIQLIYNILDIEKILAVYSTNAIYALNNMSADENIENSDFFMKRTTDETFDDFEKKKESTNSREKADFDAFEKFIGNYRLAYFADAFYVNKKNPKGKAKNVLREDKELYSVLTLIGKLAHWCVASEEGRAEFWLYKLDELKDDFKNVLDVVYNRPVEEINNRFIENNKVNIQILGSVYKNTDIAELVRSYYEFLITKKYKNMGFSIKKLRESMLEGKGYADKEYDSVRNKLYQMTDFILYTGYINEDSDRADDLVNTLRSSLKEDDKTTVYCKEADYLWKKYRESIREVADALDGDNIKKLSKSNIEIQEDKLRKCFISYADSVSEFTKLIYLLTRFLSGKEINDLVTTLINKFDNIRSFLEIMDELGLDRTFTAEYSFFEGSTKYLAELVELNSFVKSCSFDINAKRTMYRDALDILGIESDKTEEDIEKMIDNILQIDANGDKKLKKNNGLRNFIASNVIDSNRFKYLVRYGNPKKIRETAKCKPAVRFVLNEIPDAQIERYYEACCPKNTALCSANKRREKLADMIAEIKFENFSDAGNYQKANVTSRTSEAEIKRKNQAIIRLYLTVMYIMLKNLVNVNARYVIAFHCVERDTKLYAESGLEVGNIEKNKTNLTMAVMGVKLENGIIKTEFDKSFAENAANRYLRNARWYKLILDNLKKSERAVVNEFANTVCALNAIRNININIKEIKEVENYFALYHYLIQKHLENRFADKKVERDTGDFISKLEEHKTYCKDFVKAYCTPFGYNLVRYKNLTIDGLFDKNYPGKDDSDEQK
# experimentDescription: crRNA (strand 1, pre-loaded); Mg2+; 40 mM Tris-HCl pH 7.5, 150 mM NaCl, 6 mM MgCl2, 1 mM DTT, 0.1% Tween-20, 0.2 mg/ml BSA; 25 C; 10 min per concentration, then washed
# conditionContext: tags: His6-TwinStrep-SUMO cleaved; N-terminal SNAP kept (SNAP-Surface 488); label: 3' end held by stalled T7 RNA polymerase
propertyName: Kd (nM)

[[record]]
binder = "target 1 MT 5'PFS UCG 3'PFS AAA (mixed) RNA 1: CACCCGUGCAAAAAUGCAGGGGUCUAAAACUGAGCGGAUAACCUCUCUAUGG RNA 2: GGGAAUGGAUCCACAUCUACGAAUUCUCGCCAUAGAGAGGUUAUCCGCUCAAAAAGAUCGGAAGAGCACACGU"
unitinfo = "nM"
resultvalue = 23

[[record]]
binder = "target 2 MT 5'PFS AUA 3'PFS AGU (mixed) RNA 1: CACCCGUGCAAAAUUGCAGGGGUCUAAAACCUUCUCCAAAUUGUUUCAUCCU RNA 2: GGGAAUGGAUCCACAUCUACGAAUUCAUAAGGAUGAAACAAUUUGGAGAAGAGUAGAUCGGAAGAGCACACGU"
unitinfo = "nM"
resultvalue = 26

